Assign Inactivation Tau @ −20 mV to each entry below.
# system-name: T1, Cav3.1 (Homo sapiens, UniProt O43497)
# T1 construct: expressed in transfected cells; host or cells: HEK-293, stably transfected
# T1 sequence (O43497 whole entry): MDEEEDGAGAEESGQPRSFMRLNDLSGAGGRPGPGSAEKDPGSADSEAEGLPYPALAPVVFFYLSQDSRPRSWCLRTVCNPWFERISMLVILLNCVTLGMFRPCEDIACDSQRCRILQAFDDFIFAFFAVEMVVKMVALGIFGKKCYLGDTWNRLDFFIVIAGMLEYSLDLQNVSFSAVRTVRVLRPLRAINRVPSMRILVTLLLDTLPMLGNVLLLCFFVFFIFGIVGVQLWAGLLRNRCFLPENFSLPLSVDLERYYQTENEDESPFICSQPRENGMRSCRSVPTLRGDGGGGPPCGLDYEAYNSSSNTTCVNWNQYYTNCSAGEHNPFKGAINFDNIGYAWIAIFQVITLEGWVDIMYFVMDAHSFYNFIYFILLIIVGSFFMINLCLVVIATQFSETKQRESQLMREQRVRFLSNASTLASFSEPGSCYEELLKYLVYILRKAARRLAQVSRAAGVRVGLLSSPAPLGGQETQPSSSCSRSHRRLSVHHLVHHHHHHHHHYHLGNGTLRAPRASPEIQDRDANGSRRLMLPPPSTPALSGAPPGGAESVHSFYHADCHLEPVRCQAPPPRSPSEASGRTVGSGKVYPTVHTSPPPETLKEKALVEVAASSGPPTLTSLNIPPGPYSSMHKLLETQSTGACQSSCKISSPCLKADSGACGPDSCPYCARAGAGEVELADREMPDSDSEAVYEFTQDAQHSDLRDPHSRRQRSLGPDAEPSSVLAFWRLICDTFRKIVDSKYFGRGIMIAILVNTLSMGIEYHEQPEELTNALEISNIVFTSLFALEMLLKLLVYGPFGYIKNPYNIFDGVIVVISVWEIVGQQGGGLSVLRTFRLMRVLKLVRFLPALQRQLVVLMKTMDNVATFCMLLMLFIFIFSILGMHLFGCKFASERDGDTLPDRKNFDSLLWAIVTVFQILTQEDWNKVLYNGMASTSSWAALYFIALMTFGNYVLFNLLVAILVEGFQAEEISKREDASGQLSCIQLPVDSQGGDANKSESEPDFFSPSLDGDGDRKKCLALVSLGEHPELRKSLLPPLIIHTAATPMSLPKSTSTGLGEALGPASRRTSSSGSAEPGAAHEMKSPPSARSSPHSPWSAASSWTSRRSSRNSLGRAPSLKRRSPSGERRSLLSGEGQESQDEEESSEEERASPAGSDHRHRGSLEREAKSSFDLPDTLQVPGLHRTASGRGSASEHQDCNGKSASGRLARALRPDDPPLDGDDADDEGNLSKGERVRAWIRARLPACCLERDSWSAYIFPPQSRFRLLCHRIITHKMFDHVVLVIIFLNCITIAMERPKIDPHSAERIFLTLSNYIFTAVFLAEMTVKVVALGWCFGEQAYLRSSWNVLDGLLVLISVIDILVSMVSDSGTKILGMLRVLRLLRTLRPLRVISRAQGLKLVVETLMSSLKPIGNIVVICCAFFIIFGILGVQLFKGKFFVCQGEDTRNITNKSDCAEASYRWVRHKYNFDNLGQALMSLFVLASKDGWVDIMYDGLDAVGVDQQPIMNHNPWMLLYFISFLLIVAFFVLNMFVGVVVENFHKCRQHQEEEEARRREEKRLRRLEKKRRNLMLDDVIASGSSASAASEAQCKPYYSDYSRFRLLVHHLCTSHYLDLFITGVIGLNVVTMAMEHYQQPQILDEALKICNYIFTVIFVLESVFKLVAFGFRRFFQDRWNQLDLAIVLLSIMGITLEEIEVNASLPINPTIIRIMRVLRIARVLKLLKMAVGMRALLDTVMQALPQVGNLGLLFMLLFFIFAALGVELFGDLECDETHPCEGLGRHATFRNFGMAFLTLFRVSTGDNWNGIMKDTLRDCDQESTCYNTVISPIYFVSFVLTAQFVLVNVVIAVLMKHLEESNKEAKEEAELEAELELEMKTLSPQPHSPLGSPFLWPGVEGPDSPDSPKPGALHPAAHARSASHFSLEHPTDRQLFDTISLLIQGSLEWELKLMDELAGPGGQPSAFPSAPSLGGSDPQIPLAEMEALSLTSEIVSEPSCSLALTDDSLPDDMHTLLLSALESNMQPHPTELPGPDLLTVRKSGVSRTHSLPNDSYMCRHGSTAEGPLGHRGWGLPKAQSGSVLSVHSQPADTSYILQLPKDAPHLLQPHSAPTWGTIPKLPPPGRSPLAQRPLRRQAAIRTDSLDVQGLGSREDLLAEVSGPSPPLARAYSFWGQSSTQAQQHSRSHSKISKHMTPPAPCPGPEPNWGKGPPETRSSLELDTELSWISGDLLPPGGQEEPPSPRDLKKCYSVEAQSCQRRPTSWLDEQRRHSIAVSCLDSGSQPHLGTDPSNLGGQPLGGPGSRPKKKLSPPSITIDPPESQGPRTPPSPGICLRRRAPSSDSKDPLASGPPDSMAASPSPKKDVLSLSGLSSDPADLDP
# protocol-description: Whole-cell patch clamp of Cav3.1 dependent LVA calcium current in HEK-293/Cav3.1 cells transiently transfected with γ subunits (Example 1)
# Assay type: cell-based
# settings: Table 2

## Input Entry γ4: rat calcium channel γ4 subunit (AF361341), SEQ ID NO:47 (protein, listed as Rattus norvegicus) MVRCDRGLQMLLTTAGAFAAFSLMAIAIGTDYWLYSSAHICNGTNLTMDDGPPPRRARGDLTHSGLWRVCCIEGIYKGHCFRINHFPEDNDYDHDSSEYLLRIVRASSVFPILSTILLLLGGLCIGAGRIYSRKNNIVLSAGILFVAAGLSNIIGIIVYISSNTGDPSDKRDEDKKNHYNYGWSFYFGALSFIVAETVGVLAVNIYIEKNKELRFKTKREFLKASSSSPYSRMPSYRYRRRRSRSSSRSTEASPSRDASPVGLKITGAIPMGELSMYTLSREPLKVTTAASYSPDQDAGFLQMHDFFQQDLKEGFHVSMLNRRTTPV has what Inactivation Tau @ −20 mV?
## Output 15.8 ± 0.7 (n = 7) ms

## Input Entry γ7: rat calcium channel γ7 subunit (AF361345), SEQ ID NO:50 (protein, listed as Rattus norvegicus) MSHCSSRALTLLSSVFGACGLLLVGIAVSTDYWLYMEEGTVLPQNQTTEVKMALHAGLWRVCFFAGREKGRCVASEYFLEPEINLVTENTENILKTVRTATPFPMVSLFLVFTAFVISNIGHIRPQRTILAFVSGIFFILSGLSLVVGLVLYISSINDEVMNRPSSSEQYFHYRYGWSFAFAASSFLLKEGAGVMSVYLFTKRYAEEEMYRPHPAFYRPRLSDCSDYSGQFLQPEAWRRGRSPSDISSDVSIQMTQNYPPAIKYPDHLHISTSPC has what Inactivation Tau @ −20 mV?
## Output 17.2 ± 0.5 (n = 10) ms

## Input Entry γ6S: rat calcium channel γ6 subunit, short isoform (AF361344), SEQ ID NO:49 (protein, listed as Rattus norvegicus) MMWSNFFMQEEDRRRTAVGRRRAQEQQNLGLTPEREGKIKLGLLVAIVGATLAVLAVGTEFWVELNTYKTNGSAVCEAAHLGLWKVCIKRLWQADVPAGRETCGPAELPGEANCTYFKFFTTGENAHIFQRTTKKGLLLFVSLEVFRHSVRALLQGVNPETPPAPRLAYEYSWSLGCGVGAGLILLLGGVCFLLLTLPSWPWRSLCPKRGGPTA has what Inactivation Tau @ −20 mV?
## Output 22.9 ± 0.7 (n = 2) ms

## Input Entry γ6L: rat calcium channel γ6 subunit, long isoform (AF361343), SEQ ID NO:48 (protein, listed as Rattus norvegicus) MMWSNFFMQEEDRRRTAVGRRRAQEQQNLGLTPEREGKIKLGLLVAIVGATLAVLAVGTEFWVELNTYKTNGSAVCEAAHLGLWKVCIKRLWQADVPAGRETCGPAELPGEANCTYFKFFTTGENAHIFQRTTKKEVNLAAAVIAVLGLTAMALGCLCVIMVLSKGAEFLLRLGAVCFGLSGLLLFVSLEVFRHSVRALLQGVNPETPPAPRLAYEYSWSLGCGVGAGLILLLGGVCFLLLTLPSWPWRSLCPKRGGPTA has what Inactivation Tau @ −20 mV?
## Output 18.6 ± 1.1 (n = 6) ms
